B1: PhoQ; a variant is named by its letters at X, in order, P23837 (parent)
chain: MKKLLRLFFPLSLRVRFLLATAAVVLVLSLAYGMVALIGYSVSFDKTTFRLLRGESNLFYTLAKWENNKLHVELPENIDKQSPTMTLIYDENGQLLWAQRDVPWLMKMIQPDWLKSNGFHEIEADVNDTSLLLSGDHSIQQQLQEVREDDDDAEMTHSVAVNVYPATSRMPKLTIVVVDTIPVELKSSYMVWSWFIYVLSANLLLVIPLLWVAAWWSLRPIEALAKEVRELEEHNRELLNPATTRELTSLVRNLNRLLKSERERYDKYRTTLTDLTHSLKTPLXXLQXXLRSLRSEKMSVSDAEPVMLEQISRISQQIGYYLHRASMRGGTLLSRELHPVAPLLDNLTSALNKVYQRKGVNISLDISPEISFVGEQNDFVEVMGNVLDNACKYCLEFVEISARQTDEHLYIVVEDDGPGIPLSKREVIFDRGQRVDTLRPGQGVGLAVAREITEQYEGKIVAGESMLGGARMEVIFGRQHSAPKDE

Variants of: B1
measurement notes: enrichment ratio after two sorts for PhoP signalling (ratio (wild type AVST 3.29)); higher = more functional
experimental setup: with PhoP (E. coli)
In all, about 140,000 sequences were measured (“enrichment ratio after two sorts for PhoP signalling”: median about 0, highest 2% from about 11 on). This is one part of a sample in which the highest values are shown more often than they occur.
measured quantity: enrichment ratio

# example entries with known answers
INSERT INTO measurements (variant_descriptor, reported) VALUES
  ('NVLH', '≤ 0.25'),
  ('WSND', '≤ 0.25'),
  ('TYHN', '≤ 0.25'),
  ('MCAI', 8.95),
  ('VFIY', '≤ 0.25');

Each of the following entries comes with a recorded value; kindly state enrichment ratio for each.
1. YSLM
2. HQAE
3. THES
4. TLGR

Output line:
1. 9.22
2. ≤ 0.25
3. ≤ 0.25
4. ≤ 0.25

Each of the following entries comes with a recorded value; kindly state enrichment ratio for each.
1. FPSQ
2. YDNA

Output line:
≤ 0.25
≤ 0.25

Data origin: a collection of fitness landscapes (doi:10.1126/science.1257360)
